Settings: 348.15 K; 101.33 kPa; Liquid; Falling or rolling sphere viscometry
assayMetric: viscosity (mPa·s)
Entry rule: numbers only, all in mPa·s.

Enquiry: Form field: reported viscosity of CCCC[n+]1ccccc1.O=S(=O)([N-]S(=O)(=O)C(F)(F)F)C(F)(F)F [1-butylpyridinium bis[(trifluoromethyl)sulfonyl]imide]
Return: 12.04

Enquiry: Form field: reported viscosity of CCCCCCCC[N+](C)(CCCCCCCC)CCCCCCCC.O=C([O-])C(F)(F)F [methyltrioctylammonium trifluoroacetate]
Return: 79.97

Enquiry: Form field: reported viscosity of CC[S+](CC)CC.O=S(=O)([N-]S(=O)(=O)C(F)(F)F)C(F)(F)F [triethylsulfonium bis((trifluoromethyl)sulfonyl)imide]
Return: 8.445

Enquiry: Form field: reported viscosity of CC[S+](C)CC.O=S(=O)([N-]S(=O)(=O)C(F)(F)F)C(F)(F)F [diethylmethylsulfonium bis[(trifluoromethyl)sulfonyl]imide]
Return: 9.945

====

Settings: 398.15 K; 101.33 kPa; Liquid; Alternating current cell with electrodes
assayMetric: electrical conductivity
Answer with the value and then the unit.

Enquiry: Form field: reported electrical conductivity of CC[S+](C)CC.O=S(=O)([N-]S(=O)(=O)C(F)(F)F)C(F)(F)F [diethylmethylsulfonium bis[(trifluoromethyl)sulfonyl]imide]
Return: 4.99 S/m

Enquiry: Form field: reported electrical conductivity of CCCC[n+]1ccccc1.O=S(=O)([N-]S(=O)(=O)C(F)(F)F)C(F)(F)F [1-butylpyridinium bis[(trifluoromethyl)sulfonyl]imide]
Return: 3.37 S/m

Enquiry: Form field: reported electrical conductivity of CCCC[N+]1(C)CCCC1.N#CN=C=[N-] [1-butyl-1-methylpyrrolidinium dicyanamide]
Return: 7.78 S/m

Enquiry: Form field: reported electrical conductivity of CC[S+](CC)CC.O=S(=O)([N-]S(=O)(=O)C(F)(F)F)C(F)(F)F [triethylsulfonium bis((trifluoromethyl)sulfonyl)imide]
Return: 5 S/m

====

Assignment: determine reported electrical conductivity for the given molecules.
Conditions: 418.15 K; 101.33 kPa; Liquid; Alternating current cell with electrodes
Entry rule: numbers only, all in S/m.

Enquiry: Form field: reported electrical conductivity of CCCC[N+]1(C)CCCC1.N#CN=C=[N-] [1-butyl-1-methylpyrrolidinium dicyanamide]
Return: 9.57

Enquiry: Form field: reported electrical conductivity of CCCC[n+]1ccccc1.O=S(=O)([N-]S(=O)(=O)C(F)(F)F)C(F)(F)F [1-butylpyridinium bis[(trifluoromethyl)sulfonyl]imide]
Return: 4.27

Enquiry: Form field: reported electrical conductivity of CC[S+](CC)CC.O=S(=O)([N-]S(=O)(=O)C(F)(F)F)C(F)(F)F [triethylsulfonium bis((trifluoromethyl)sulfonyl)imide]
Return: 6.16

Enquiry: Form field: reported electrical conductivity of CC[S+](C)CC.O=S(=O)([N-]S(=O)(=O)C(F)(F)F)C(F)(F)F [diethylmethylsulfonium bis[(trifluoromethyl)sulfonyl]imide]
Return: 6.16

====

Conditions: 328.15 K; 101.33 kPa; Liquid; Falling or rolling sphere viscometry
Assignment: determine reported viscosity for the given molecules.
Entry rule: numbers only, all in mPa·s.

Enquiry: Form field: reported viscosity of CCCCCCCC[N+](C)(CCCCCCCC)CCCCCCCC.O=C([O-])C(F)(F)F [methyltrioctylammonium trifluoroacetate]
Return: 212.1

Enquiry: Form field: reported viscosity of CC[S+](C)CC.O=S(=O)([N-]S(=O)(=O)C(F)(F)F)C(F)(F)F [diethylmethylsulfonium bis[(trifluoromethyl)sulfonyl]imide]
Return: 15.73

Enquiry: Form field: reported viscosity of CC[S+](CC)CC.O=S(=O)([N-]S(=O)(=O)C(F)(F)F)C(F)(F)F [triethylsulfonium bis((trifluoromethyl)sulfonyl)imide]
Return: 13.26

Enquiry: Form field: reported viscosity of CCCC[n+]1ccccc1.O=S(=O)([N-]S(=O)(=O)C(F)(F)F)C(F)(F)F [1-butylpyridinium bis[(trifluoromethyl)sulfonyl]imide]
Return: 20.36

// provenance: the NIST ThermoML archive (doi:10.1021/acs.jced.7b00060)
